Molecular target: T1, GDF15 (Homo sapiens (Human), UniProt Q99988 30-308)
T1 sequence: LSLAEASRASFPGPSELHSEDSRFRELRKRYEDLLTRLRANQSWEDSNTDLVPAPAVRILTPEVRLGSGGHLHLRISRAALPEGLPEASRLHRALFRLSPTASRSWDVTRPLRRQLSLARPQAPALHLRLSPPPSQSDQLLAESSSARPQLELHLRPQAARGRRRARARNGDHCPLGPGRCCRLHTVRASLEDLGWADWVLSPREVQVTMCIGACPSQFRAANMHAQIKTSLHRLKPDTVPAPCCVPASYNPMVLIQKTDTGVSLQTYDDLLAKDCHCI
Assay: cell-based or functional assay

Binder	GDF15 GFRAL RET pERK Fab IC50 pM [pM]
Clone M Fab (Fab, V domains shown, Fab format) VH: QVQLVQSGAEVKKPGASVKVSCKASGYTFDSYGINWVRQAPGQGLEWMGWISAYSGDTAYAQELQGRVTMTTDTSTSTAYMELRSLRSDDTAVYYCVRDTQYGGSPYWGQGTLVTVSS VL: EIVMTQSPATLSVSPGERATLSCRASQSVSSNLAWYQQKPGQAPRLLIYGASTRATGIPARFSGSGSGTEFTLTISSLQSEDFAVYYCQQYNNWPITFGGGTKVEIK	1370
Clone I Fab (Fab, V domains shown, Fab format) VH: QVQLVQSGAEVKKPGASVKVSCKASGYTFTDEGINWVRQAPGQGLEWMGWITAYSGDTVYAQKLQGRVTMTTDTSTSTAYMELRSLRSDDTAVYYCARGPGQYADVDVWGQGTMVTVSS VL: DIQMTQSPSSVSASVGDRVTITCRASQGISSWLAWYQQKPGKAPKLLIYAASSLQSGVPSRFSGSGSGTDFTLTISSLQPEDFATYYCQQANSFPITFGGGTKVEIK	111
Clone E Fab (Fab, V domains shown, Fab format) VH: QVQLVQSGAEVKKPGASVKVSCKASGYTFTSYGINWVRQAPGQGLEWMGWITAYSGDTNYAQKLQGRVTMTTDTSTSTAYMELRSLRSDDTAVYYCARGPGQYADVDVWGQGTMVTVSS VL: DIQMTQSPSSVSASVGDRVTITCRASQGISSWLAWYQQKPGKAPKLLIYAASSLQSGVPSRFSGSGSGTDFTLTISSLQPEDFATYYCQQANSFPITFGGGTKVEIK	46.7
Clone J Fab (Fab, V domains shown, Fab format) VH: QVQLVQSGAEVKKPGASVKVSCKASGYTFTSYGINWVRQAPGQGLEWMGWIDAYSGSTNYAQKLQGRVTMTTDTSTSTAYMELRSLRSDDTAVYYCARGPGQYADVDVWGQGTMVTVSS VL: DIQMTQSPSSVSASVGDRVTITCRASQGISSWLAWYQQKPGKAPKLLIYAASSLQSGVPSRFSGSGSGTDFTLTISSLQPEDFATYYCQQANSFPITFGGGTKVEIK	75.1
Clone N Fab (Fab, V domains shown, Fab format) VH: QVQLVQSGAEVKKPGASVKVSCKASGYTFTDYGIFWVRQAPGQGLEWMGWITAYSGDTHYAQKLQGRVTMTTDTSTSTAYMELRSLRSDDTAVYYCVRDTQYGGSPYWGQGTLVTVSS VL: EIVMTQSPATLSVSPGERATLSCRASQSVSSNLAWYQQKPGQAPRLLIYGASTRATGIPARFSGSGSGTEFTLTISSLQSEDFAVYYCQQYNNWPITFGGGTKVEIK	322
Clone K Fab (Fab, V domains shown, Fab format) VH: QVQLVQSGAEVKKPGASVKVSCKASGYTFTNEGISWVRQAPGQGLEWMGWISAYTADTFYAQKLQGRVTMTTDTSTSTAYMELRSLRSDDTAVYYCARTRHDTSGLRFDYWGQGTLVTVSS VL: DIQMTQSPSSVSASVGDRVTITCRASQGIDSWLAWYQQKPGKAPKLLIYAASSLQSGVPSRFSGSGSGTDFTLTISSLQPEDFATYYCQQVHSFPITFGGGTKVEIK	169
